# Test system: T1, human CD1d expressed on HEK-293 cells (human, UniProt P15813 20-335; P61769 21-119)
# T1 construct: also called HEK - CD1d
# Protocol: flow cytometry, HEK-293 cells, 3.16 µg/ml antibody
Catalogue of Fluorescence Intensity Geomean (normalized to background) readings, one per entry.
Readout kind: Fluorescence Intensity Geomean (normalized to background) (fold over background)

• 116 (VR12117) (antibody, V domains shown, also called OX116) VH: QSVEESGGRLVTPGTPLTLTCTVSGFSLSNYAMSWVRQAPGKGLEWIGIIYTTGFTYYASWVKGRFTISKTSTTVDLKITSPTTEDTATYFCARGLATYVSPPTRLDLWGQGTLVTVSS VL: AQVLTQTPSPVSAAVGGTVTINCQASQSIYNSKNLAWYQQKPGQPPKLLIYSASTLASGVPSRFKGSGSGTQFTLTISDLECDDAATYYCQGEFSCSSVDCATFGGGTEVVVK = 1.1
• 77A (VR11851) (antibody, V domains shown, also called OX77a; antibody 77a) VH: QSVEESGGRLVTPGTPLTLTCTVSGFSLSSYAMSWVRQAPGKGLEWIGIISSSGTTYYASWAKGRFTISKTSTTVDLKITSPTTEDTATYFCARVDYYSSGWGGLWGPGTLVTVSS VL: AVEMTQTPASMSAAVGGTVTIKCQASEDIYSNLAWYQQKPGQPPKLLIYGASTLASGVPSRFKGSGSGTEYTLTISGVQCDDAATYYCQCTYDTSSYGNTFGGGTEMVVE = 0.9
• 111 (VR12113) (antibody, V domains shown, also called OX111) VH: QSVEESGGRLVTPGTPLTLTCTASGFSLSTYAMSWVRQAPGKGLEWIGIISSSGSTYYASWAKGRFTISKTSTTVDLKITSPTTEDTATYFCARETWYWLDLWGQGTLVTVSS VL: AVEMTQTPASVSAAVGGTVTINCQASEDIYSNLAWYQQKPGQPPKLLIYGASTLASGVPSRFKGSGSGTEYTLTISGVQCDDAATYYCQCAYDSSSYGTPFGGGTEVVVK = 1.1
• 110 (VR12112) (antibody, V domains shown, also called OX110; antibody 110) VH: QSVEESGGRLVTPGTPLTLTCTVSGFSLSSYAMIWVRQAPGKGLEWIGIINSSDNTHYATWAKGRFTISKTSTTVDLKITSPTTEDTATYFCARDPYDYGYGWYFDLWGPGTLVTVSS VL: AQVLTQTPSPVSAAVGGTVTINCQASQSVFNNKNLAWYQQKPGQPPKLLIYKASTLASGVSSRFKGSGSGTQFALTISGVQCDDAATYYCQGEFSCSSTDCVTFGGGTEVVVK = 1
